# tested.on: T1, Peptide-40 (cysteine pairing not given here; also: biotinylated, site not given here)
# T1 peptide: VDFCYLYSWPICTK
# procedure.summary: ELISA, Fab on captured biotin-peptide
Where no end group is shown, it is not given here.
Listing of entries alongside the reported pEC50.
Give only the number. pEC50 is defined as minus log10 of concentration in molar units.

| binder | pEC50 |
| --- | --- |
| TBD-1 wt (Fab, V domains shown, Fab; the heavy chain entry is VH-CH1; also called wild-type anti-TROP2 Fab (hRS7); TROP2 Fab) VH: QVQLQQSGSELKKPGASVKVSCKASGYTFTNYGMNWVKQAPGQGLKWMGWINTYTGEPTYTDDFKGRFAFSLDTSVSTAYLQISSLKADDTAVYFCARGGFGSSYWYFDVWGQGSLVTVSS VL: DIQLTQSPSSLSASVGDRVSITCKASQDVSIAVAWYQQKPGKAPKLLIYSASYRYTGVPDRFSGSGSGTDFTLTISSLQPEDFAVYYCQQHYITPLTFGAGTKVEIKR | 7.40 |

The record that follows has no pEC50 shown yet.
Query :: Give its pEC50 value. Item: TBD-11 (HC R98A) (Fab, V domains shown, Fab; also called HC R98A mutant) VH: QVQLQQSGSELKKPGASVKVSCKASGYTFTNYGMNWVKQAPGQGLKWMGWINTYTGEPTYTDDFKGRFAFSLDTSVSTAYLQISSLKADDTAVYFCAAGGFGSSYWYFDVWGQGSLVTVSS VL: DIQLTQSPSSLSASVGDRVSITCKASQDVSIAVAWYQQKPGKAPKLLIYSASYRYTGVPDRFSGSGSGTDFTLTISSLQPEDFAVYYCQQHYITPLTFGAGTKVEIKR
Result :: 6.51
